All values here come from PubChem BioAssay (NCI).

test system: SK-MEL-2 melanoma; assay: NCI tumour cell line growth inhibition, 48 h
Binning scheme for TGI: range A = under 5 µM, range B = from 5 µM up to 40 µM, range C = 40 µM and over

compound	assigned.category
N#Cc1c(Cl)c2cc([N+](=O)[O-])ccc2n2c1nc1ccccc12	range B
CCOC(=O)c1c(C)nc2c(c1N)/C(=C/c1ccc(OC)cc1)C(=O)N2Cc1ccc(F)cc1	range A
COC(C(O)c1ccc2c(c1)OCO2)P(=O)(c1ccccc1)c1ccccc1 (stereo not given)	range C
CC(=O)Nc1ccc2[nH]c(C(=O)N3CC(CCl)c4c3cc(N)c3ccccc43)cc2c1 (stereo not given)	range A
Cc1cc(C)n(C2OC(CO)C(O)C(O)C2O)c(=S)c1C#N (stereo not given)	range C
CSc1nc2cc(S(=O)(=O)N3CCCCC3)ccc2s1	range C
O=S1(=O)N(CCNc2nccc(-c3c(-c4cccc(O)c4)nc4sccn34)n2)CCN1Cc1ccccc1	range A
COc1ccc(CCN2CCN(CCc3ccc(OC)cc3)CC2)cc1	range C
CC(C)(C)c1ccc(O)c(CN(Cc2cc(C(C)(C)C)ccc2O)c2ccccc2)c1	range B
Cc1ccc(S(=O)(=O)OC(c2ccc(Cl)cc2Cl)C2OC(=O)c3ccccc32)cc1 (stereo not given)	range C
C=C(C)C(=O)OC1CCC2(C)C(CCC3C2CCC2(C)C(c4ccc(=O)oc4)CC4OC432)C1 (stereo not given)	range B
O=C1/C(=C/c2ccc(O)cc2)CSc2ccc(Cl)cc21	range C
O=c1[nH]nc(Cc2ccccc2)[nH]1	range C
COC(=O)[C@H](Cc1c[nH]c2ccccc12)NC(=O)[C@@H](OC)[C@@H]1Cc2cc3cc(OC4CC(OC5CC(O)C(O)C(C)O5)C(O)C(C)O4)c(C)c(O)c3c(O)c2C(=O)[C@H]1OC1CC(OC2CC(OC3CC(C)(O)C(O)C(C)O3)C(O)C(C)O2)C(O)C(C)O1 (stereo not given in full)	range A
CC(=NNC(=S)Nc1ccc(C)cc1)c1cccc(C(C)=NNC(=S)Nc2ccc(C)cc2)n1	range C
c1cc2c(ncc3cscc32)s1	range C
CC(C)(C)c1ccc(-c2nc3ccc(Cl)cc3c(=O)o2)cc1	range C
COc1ccc(C2C3=C(Nc4ncnn42)c2ccccc2OC3c2ccccc2)cc1 (stereo not given)	range C

----------
Reported GI50 values are given for each entry in this list.
tested on: A498 renal; experiment: NCI tumour cell line growth inhibition, 48 h

compound	GI50
CCCCCN(CCCCC)CC(O)c1ccc(Cl)c2ccccc12 (centres undefined)	10.3 µM
C/C(=N\Nc1ccc(Cl)cn1)c1ccccn1	0.174 µM
N.N.O=C([O-])P(=O)([O-])[O-].[Na+].[Pt+4]	> 100 µM
COc1ccc(OC)c(C(=O)c2oc3ccc(Br)cc3c2N)c1	0.0923 µM
Fc1ccc(-c2nn3ncccc3c2-c2ccnc(Nc3ccc4c(c3)OCCO4)n2)cc1	4.04 µM
Nc1nc(-c2cccc(Cl)c2)c(-c2ccc3ncccc3n2)s1	8.4 µM
Cc1ccc(NC(=O)c2sc3nc(C)c(C(O)c4ccccc4)cc3c2N)cc1 (centres undefined)	0.233 µM
Cc1ccc2c3c(c(=O)[nH]c2c1)C1(C(C#N)=C(N)O3)c2cc(Br)ccc2-c2ccc(Br)cc21	1.44 µM
Cn1c2ccccc2c2c3[nH]c(=O)[nH]c(=O)c3c3c4ccccc4n(C)c3c21	0.0475 µM
C=C1C(=O)O[C@H]2[C@H]1CC/C(COC(=O)c1cc3ccccc3s1)=C\CC[C@@]1(C)O[C@@H]21	10.1 µM
C=C(C)C1CCC2(C(=O)O)CCC3(C)C(CCC4C5(C)CCC(OC(=O)NCc6ccccc6)C(C)(C)C5CCC43C)C12 (centres undefined)	2.57 µM
COc1cc2c3c(n(C)c(=O)c2cc1OC)-c1cc2c(cc1/C3=C\CNCCCN)OCO2	3.84 µM
O=S1(=O)N(CCNc2nccc(-c3c(-c4cccc(O)c4)nc4sccn34)n2)CCN1Cc1ccccc1	1.78 µM
NCCCn1c2c(c3ccc([N+](=O)[O-])cc3c1=O)C(=O)c1cc(Br)ccc1-2	0.00231 µM
COc1ccc(-c2nnc(COc3ccc(NC(=O)Nc4ccc(Cl)c(C(F)(F)F)c4)cc3F)o2)cc1	3.19 µM
C=C1CC[C@@H]2[C@](C)(COC(C)=O)[C@H](OC(C)=O)CC[C@@]2(C)[C@@H]1CC(Nc1ccc(S(=O)(=O)Nc2ncccn2)cc1)C1=CCOC1=O (some centres undefined)	12.3 µM
O=C(/C(=C/c1cccc([N+](=O)[O-])c1)c1ccccc1)c1ccccc1	2.69 µM
O=C1/C(=C/c2ccc(O)cc2)CSc2ccc(Cl)cc21	15 µM
O=C(/C=C\n1cnc(-c2cc(C(F)(F)F)cc(C(F)(F)F)c2)n1)NNc1cnccn1	0.0216 µM

----------
TGI: recorded values
tested on: SK-MEL-28 melanoma; experiment: NCI tumour cell line growth inhibition, 48 h
Where a SMILES comes first, the peptide text is derived from it. The star is where a group is joined. Cbz = O=C(OCc1ccccc1)*; Boc = CC(C)(C)OC(=O)*; tBu = CC(C)(C)*
attribute.measured: TGI

compound	measured
FC(F)(F)c1nc(-c2ccccc2)oc1Sc1nnc(Sc2oc(-c3ccccc3)nc2C(F)(F)F)s1	> 93.8 µM
O=C1C=CC=C/C1=C1\N=C(c2ccccc2OCC(=O)c2ccc(Br)cc2)SS1	> 100 µM
O=C(O)[C@@H]1CSCN1C(=O)[C@@H]1CCC(=S)N1	> 100 µM
COc1ccc(OC)c(C(=O)c2oc3ccc(Br)cc3c2N)c1	26.2 µM
O=C(O)[C@@H]1CCCCN1Cc1cc2cc3c(cc2c2cc(OCc4ccccc4)ccc12)OCO3	7.28 µM
CC(OC(C)(C)C)C(NC(=O)C(CCCCNC(=O)OC(C)(C)C)NC(=O)C(Cc1c[nH]c2ccccc12)NC(=O)C(Cc1ccccc1)NC(=O)OCc1ccccc1)C(=O)NC(Cc1ccccc1)C(=O)O (configuration not stated) (Cbz-FWK(Boc)T(tBu)F-OH; configuration not given here)	> 100 µM
O=[N+]([O-])c1cccc2nc3ccccc3c(NCCC[N+]3([O-])CCOCC3)c12	0.984 µM
CC[CH2][Sn]([Cl])([Cl])[CH2]CC.Oc1ccccc1C=NCCN=Cc1ccccc1O	21.6 µM
COc1ccc(/C=C\c2cc(OC)c(OC)c(OC)c2)cc1OC(=O)NCCN(C)C	43.1 µM
CS(=O)(=O)c1cc(=O)c2ccccc2s1	7.5 µM
C/C=C1/C(=C/c2[nH]c(/C=c3\[nH]/c(=C/C4=NC(=O)C(CC)=C4C)c(C)c3CCC(=O)O)c(CCC(=O)O)c2C)NC(=O)C1C (configuration not stated)	> 150 µg/mL
COc1cc2c(cc1OC)CCc1cc(OC)c(OC)cc1CC2	> 100 µM
CC[C@H](C)[C@H]1O[C@]2(C=C[C@@H]1C)C[C@@H]1C[C@@H](C/C=C(\C)[C@@H](O[C@H]3C[C@H](OC)[C@@H](O[C@H]4C[C@H](OC)[C@@H](NC)[C@H](C)O4)[C@H](C)O3)[C@@H](C)/C=C/C=C3\CO[C@@H]4[C@H](O)C(C)=C[C@@H](C(=O)O1)[C@]34O)O2	3.47 µM
CCOC(=O)CN=C1NNS(=O)(=O)c2ccccc21	> 100 µM
O=S1(=O)N(CCNc2nccc(-c3c(-c4cccc(O)c4)nc4sccn34)n2)CCN1Cc1ccccc1	> 50 µM
O=C(/C=C/c1c(O)ccc2ccccc12)c1ccccc1	> 100 µM
CC1(C)N=C(N)N=C(N)N1c1ccc(OCc2ccc(S(=O)(=O)F)c(Cl)c2)c(Cl)c1	> 100 µM

----------
Listed here are compounds together with their documented GI50.
test system: IGROV1 ovarian; experiment: NCI tumour cell line growth inhibition, 48 h
attribute.measured: GI50

compound	attribute.measured	measured
COc1ccc(-c2nnc(COc3ccc(NC(=O)Nc4ccc(Cl)c(C(F)(F)F)c4)cc3F)o2)cc1	GI50	4770 nM
O=C(O)[C@@H]1CCCCN1Cc1cc2cc3c(cc2c2cc(OCc4ccccc4)ccc12)OCO3	GI50	6530 nM
Cn1c2ccccc2c2c3[nH]c(=O)[nH]c(=O)c3c3c4ccccc4n(C)c3c21	GI50	2140 nM
COC(=O)c1c(C)[nH]c(/C=C2\N=C(c3ccc[nH]3)C=C2OC)c1C	GI50	147 nM
CC[CH2][Sn]([Cl])([Cl])[CH2]CC.Oc1ccccc1C=NCCN=Cc1ccccc1O	GI50	5980 nM
c1cc[c]([Pb]([c]2ccccc2)[c]2ccccc2)cc1	GI50	10000 nM
COC(=O)C12C3C4C1C1C2C3C41NC(=O)c1csc([C@@H](C[C@H](C(C)C)N(C)C(=O)[C@@H](NC(=O)[C@H]2CCCCN2C)C2CC2)OC(C)=O)n1 (some centres undefined)	GI50	22.6 nM
Cc1ccc(NC(=O)c2sc3nc(C)c(C(O)c4ccccc4)cc3c2N)cc1 (centres undefined)	GI50	634 nM
Cc1cc(O)c(C(C)(C)C)cc1Sc1cc(C(C)(C)C)c(O)cc1C	GI50	2980 nM
